This collection of values is drawn from PubChem BioAssay (NCI).

# Tested on: NCI-H226 lung
# Test name: NCI tumour cell line growth inhibition, 48 h
Each item that follows carries a reported TGI.

See these solved cases before continuing.
[N-]=[N+]=Nc1c(Cc2ccccc2)c(Cl)nc2ccccc12 = 59.7 µM
OC1[C@@H]2[C@@H](O)CCCN2C[C@@H](O)[C@H]1O (some centres undefined) = > 100 µM
N#Cc1c(-c2ccc(Cl)cc2)c2c(nn3c4ccc5ccccc5c4nnc23)[nH]c1=O = > 52.5 µM

For the molecule shown here, Cc1cc([NH-])c([NH-])cc1C.[Cl][Pt+2][Cl] , give the reported TGI.
64 µM

What would you report for CN1CCC(CNc2cc(C3(C(=O)Nc4cc(C(=O)Nc5ccc(Cl)c(C(F)(F)F)c5)ccc4F)CC3)ncn2)CC1 ?
36.1 µM

What would you report for COc1ccc2c(c1)C(=O)CC1c3cnccc3C(=O)N21 (centres undefined) ?
> 100 µM

What would you report for Cn1ccnc1CCc1c(Cl)cccc1Cl ?
> 100 µM

What would you report for COc1cc(/C=C/C(=O)/C=C/c2cc(OC)c3c(c2)OCO3)cc2c1OCO2 ?
> 100 µM

What would you report for CCOC(=O)c1ccc(-n2[nH]nc(C(N)=O)c2=O)cc1 ?
> 100 µM

---

# System: HCT-116 colon
A correct response names exactly one class from class 1 = active, class 0 = inactive

Some entries whose results are on file:
COc1cc(/C=C/C(=O)c2c(C)nc3ccccc3c2/C=C/c2ccccc2)cc(OC)c1OC = class 0
N#C[Se]Cc1cc(-c2ccccc2)n(-c2ccc(S(N)(=O)=O)cc2)n1 = class 1
CCOC(=O)Oc1c(OC)cc(C(=O)c2ccc(OC)c(O)c2OC)cc1OC = class 0
CC1=C([Se]CC(OC(=O)CC[Se]c2ccccc2)C(=O)NC(C)(C)C)C(=O)c2ccccc2C1=O (stereo not given) = class 0

Given CCN1C(=O)N(CC)C2C1NN=c1s/c(=C\c3ccc(Cl)cc3Cl)c(=O)n12 (stereo not given) , state the outcome it received in this test.
class 1

---

# System: UACC-62 melanoma
# Test name: NCI tumour cell line growth inhibition, 48 h; in the data active = GI50 below about 0.43 µM; inactive = the rest
A correct response names exactly one class from TRUE (active), FALSE (inactive)

CC1=C([Se]CC(OC(=O)CC[Se]c2ccccc2)C(=O)NC(C)(C)C)C(=O)c2ccccc2C1=O (stereo unspecified) = FALSE
CCCN1C(=O)NC(=O)C(CC)(N2C(=O)c3c(F)c(F)c(F)c(F)c3C2=O)C1=O (stereo unspecified) = FALSE
O=C1/C(=C/c2ccc([N+](=O)[O-])cc2)CN(C(=O)CCN2CCC(=NO)CC2)C/C1=C\c1ccc([N+](=O)[O-])cc1 = FALSE
Nc1nc2ccc(-c3nc4ccc5[nH]ncc5c4c4c3CCC4)cc2s1 = TRUE
CC[O-].CC[O-].O=C([CH-]C(=O)c1ccccc1)CCCCCCCCC(=O)[CH-]C(=O)c1ccccc1.[Ti+4] = FALSE
CCSC1=NC2C(N(CC)C(=O)N2CC)N1/N=C/C=C/c1ccccc1[N+](=O)[O-] (stereo unspecified) = TRUE
c1ccc(-c2nc(-c3ccccn3)nc(-c3ccccn3)n2)nc1 = FALSE
Cc1c2cnccc2c(C)c2c1c1cc(C#N)ccc1n2C = TRUE

Given O=C(O)c1nc(NCc2nc3cc(Cl)ccc3o2)n[nH]1 , state the outcome it received in this test.
FALSE

What would you report for N#CC(C#N)=C/C=C(\Cl)c1ccc(Cl)cc1 ?
FALSE

What would you report for C=C1CCC2C3(C)COC(C)(C)OC3CCC2(C)C1C/C=C1/C(=O)OCC1OC(C)=O (stereo unspecified) ?
FALSE

---

# Tested on: MOLT-4 leukemia
# Test name: NCI tumour cell line growth inhibition, 48 h
Measured metric: TGI

COC(=O)c1sc(C(=O)OC)c2c1CS(=O)C2 = > 100 µM
CCCCCOc1ccc(C=Nc2ccc(CCc3ccc(N=Cc4ccc(OCCCCC)cc4)cc3)cc2)cc1 = > 100 µM
COc1ccc2c(c1)C(=O)CC1c3cnccc3C(=O)N21 (stereo unspecified) = > 100 µM
O=c1[nH]c2nc3ccccc3c(=O)n2/c1=C/c1ccc(Cl)cc1 = > 100 µM
C1=C(c2ccccc2)SC(N2CCCCC2)S1 (stereo unspecified) = > 100 µM
COC(=O)/C(=N\NC(C)(C)C)C(C(=O)OC)C(=O)C(=O)Nc1cc(Cl)ccc1Cl (stereo unspecified) = > 100 µM

Find the measured TGI: item CCC/C(Cl)=N\OC(=O)Nc1ccc(F)cc1 , target or system MOLT-4 leukemia.
14.9 µM

What would you report for N#CCCN(CCC#N)c1ccc(/C=C2\N=C(c3ccccc3)N(c3ccc(F)cc3)C2=O)cc1 ?
> 100 µM

What would you report for O=C1Nc2ccccc2C1(O)C/C(=N/O)c1ccc2ccccc2c1 (stereo unspecified) ?
> 100 µM

What would you report for CN1N=CSC12C(=O)N(c1ccccc1)C(=O)N2c1ccccc1 (stereo unspecified) ?
> 100 µM

What would you report for N#CN1C2CCC1CC(=O)C2 ?
> 100 µM

What would you report for COC(=O)C1=C(O)C(C(=O)OC)C2CC(=O)CC1C2(C)C (stereo unspecified) ?
> 100 µM

---

Each item that follows carries a reported TGI.
# System: SK-MEL-5 melanoma
# Test name: NCI tumour cell line growth inhibition, 48 h

See these solved cases before continuing.
NC(=O)CNC(=O)[C@@H]1CC(OCCC(=O)O)CN1C(=O)C1CCCN1C(=O)OCc1ccccc1 (stereo not given in full) = > 100 µM
CC(C)(C)c1ccc(OCCOc2ccc(C(C)(C)C)cc2N)c(N)c1 = > 100 µM
Oc1cc(Cc2ccccc2)c(Cc2ccccc2)cc1O = > 10 µM
O=C(/C=C/c1ccccc1)Oc1cccc2cccnc12 = 24 µM
CCSCCCSCCSCC = > 100 µM

For the molecule shown here, CCCCCOc1ccc(C=Nc2ccc(CCc3ccc(N=Cc4ccc(OCCCCC)cc4)cc3)cc2)cc1 , give the reported TGI.
> 100 µM

What would you report for C=CCC1(C#N)C(=S)NC2=C(C(=O)CC(C)(C)C2)C1c1ccccc1 (stereo not given) ?
> 100 µM

What would you report for COc1cccc(-c2nc3cc(NC(=O)c4ccc(Cl)c(C#N)c4)ccc3o2)c1 ?
4.2 µM

What would you report for O=C1OCC2=C1C(c1cccc(F)c1)c1cc3c(cc1N2CCO)OCO3 (stereo not given) ?
> 50 µM

What would you report for COC(=O)C1=CO[C@@H](OC2CC(CO)C(O)C(O)C2O)[C@@H]2[C@@H](C)[C@@H](OC(=O)/C=C/c3ccccc3)[C@@H](O)[C@H]12 (stereo not given in full) (tested in a mixture with another compound) ?
> 100 µM

---

# System: RXF 393 renal
# Test name: NCI tumour cell line growth inhibition, 48 h
Y means recorded TGI is 8 µM or above; N means it is below 8 µM.

Some entries whose results are on file:
O=C1c2cccc([N+](=O)[O-])c2C(=O)N1Cc1ccccc1 = Y
CCNCCNC(=O)c1ccc(I)cc1 = Y
Cc1ccc(C)c(NC(=O)C(=O)C(C(=O)c2ccc3ccccc3c2)C2OC(=O)c3ccccc32)c1 (centres undefined) = Y
COc1cccc(N2C(=O)CSC2c2cccc(Oc3ccccc3)c2)c1 (centres undefined) = Y
Cc1ccc2cnc(N)c(C#Cc3cc(C(=O)Nc4ccc(CN5CCN(C)CC5)c(C(F)(F)F)c4)cnc3C)c2c1 = N
O=C(NCC1CC1)c1ccc(-c2cccc(C(=O)NC3CC3)c2)cc1 = Y

Consider the additional molecule presented here.
Reported TGI at or above 8 µM? CCO/C(=N/S(=O)(=O)C(F)(F)F)N(C(C)C)C(C)C
Y

---

# Test system: SF-268 CNS
# Test name: NCI tumour cell line growth inhibition, 48 h
Measured metric: GI50

O=C(O)c1nc(NCc2nc3cc(Cl)ccc3o2)n[nH]1 = > 100 µM
COc1ccc(C2=Nn3c(nnc3-c3cc(Cl)cc(Cl)c3Cl)SC2)cc1 = 1.3 µM
c1ccc(C2ONC3=NCCN32)cc1 (stereo not given) = 54.3 µM
O=C1OCC2=C1C(c1cccc(F)c1)c1cc3c(cc1N2CCO)OCO3 (stereo not given) = 3.2 µM
C=C1CCC2C3(C)COC(C)(C)OC3CCC2(C)C1C/C=C1/C(=O)OCC1OC(C)=O (stereo not given) = 5.83 µM

Would you kindly look at the next entry?
For the compound shown here, CC1=C([Se]CC(OC(=O)CC[Se]c2ccccc2)C(=O)NC(C)(C)C)C(=O)c2ccccc2C1=O (stereo not given) , give the reported GI50.
1.76 µM

---

Each item that follows carries a reported TGI.
# System: UO-31 renal
# Test name: NCI tumour cell line growth inhibition, 48 h

See these solved cases before continuing.
O=C1CC(CC(=O)C2CCCCC2=O)C(=O)N1 (centres undefined) = > 100 µM
O=C1C=CC(=O)c2c1ccc1c3ccccc3n(Cc3ccc([N+](=O)[O-])cc3)c21 = > 100 µM

For the compound shown here, Cc1nc(C(N)=O)c(N)n1CCN1CCN(C(=O)CCCCCCCCCCNC2N=CNc3nc[nH]c32)CC1 (centres undefined) , give the reported TGI.
> 100 µM

What would you report for CC(CO)Nc1cc(-c2[nH]c3cccnc3c2-c2ccc(F)cc2)ccn1 (centres undefined) ?
> 25 µM

What would you report for CC(C)=CCN1c2ccccc2NC(=O)CC1C (centres undefined) ?
> 100 µM

What would you report for N=C1C(O)C2(I)c3ccccc3N3C(=N)C(O)C4c5ccccc5N1C4C32 (centres undefined) ?
> 100 µM

What would you report for COC1CC(N)(c2ccccc2)C(O)C(C)O1 (centres undefined) ?
> 100 µM
